Tested on: AR mRNA
assay-explanation: Dose-dependent antisense inhibition of human AR in HuVEC cells (electroporation, qRT-PCR RTS3559, IC50)
Type: cell-based
condition-info: Table 32; 187.5 nM, HuVEC, electroporation, approximately 16 hours
Procedure: After a treatment period of approximately 16 hours, RNA was isolated from the cells and AR mRNA levels were measured by quantitative real-time PCR. Human AR primer probe set RTS3559 was used to measure mRNA levels. AR mRNA levels were adjusted according to total RNA content, as measured by RIBOGREEN®. […] After a treatment period of approximately 16 hours, RNA was isolated from the cells and AR mRNA levels were measured by quantitative real-time PCR. […]
Oligonucleotides are written 5' to 3', each unit as a sugar letter and its base; * is a phosphorothioate linkage, no mark a phosphodiester; rarer units and linkages stand in square brackets, end groups in braces. Plain capitals give the bases only. k = constrained ethyl (cEt); [5mC] = 5-methylcytosine; d = 2'-deoxy (DNA)
Entries and their measured percent inhibition of AR, 187.5 nM follow.
// units = %; emit number, no label

Reference set, count: 4
>>> endpoint_result("583871 (kA*kT*kA*d[5mC]*dT*d[5mC]*dA*dG*d[5mC]*dA*dG*dT*dA*kT*k[5mC]*kT; antisense) [compound 583871]")
30
>>> endpoint_result("549372 (kA*kA*kG*dT*dT*dG*dT*dA*dG*dT*dA*dG*dT*k[5mC]*kG*k[5mC]) [compound 549372]")
39
>>> endpoint_result("583797 (antisense kT*k[5mC]*kG*dG*dA*dT*dA*d[5mC]*dT*dG*d[5mC]*dT*dT*k[5mC]*k[5mC]*kT) [compound 583797]")
50
>>> endpoint_result("583802 (antisense k[5mC]*kT*k[5mC]*dG*d[5mC]*dT*d[5mC]*dT*d[5mC]*d[5mC]*d[5mC]*dG*d[5mC]*kT*kG*k[5mC]) [compound 583802]")
25

Kindly review the next substance as well.
Using the record for 583865 (kT*kT*k[5mC]*dA*dG*dT*dG*d[5mC]*dT*d[5mC]*dT*dT*dG*k[5mC]*k[5mC]*kT; antisense) [compound 583865] , report its percent inhibition of AR, 187.5 nM.
42
